- System: KARPAS-45;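 further: ALL cell lines in 384-well plates, five doses spanning 10,000-fold, each plate scaled between vehicle and 100 µmol/L benzalkonium chloride controls, sDSS an adapted area-under-curve metric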
- protocol notes: selective drug sensitivity score (sDSS, relative to normal bone marrow) (sDSS (score)); higher = more potent and effective on the cell line relative to normal bone marrow cells
- test context: 72 h
Label Yes when selective drug sensitivity score is at or above -0.1; otherwise label No.

INSERT INTO assay_data (compound, classification) VALUES
  ('CC(C)NC(=O)COc1cccc(-c2nc(Nc3ccc4[nH]ncc4c3)c3ccccc3n2)c1 [KD025] (top concentration 5000 nM)', 'No'),
  ('C[C@H]1CNCCCN1S(=O)(=O)c1cccc2cncc(F)c12 [Ripasudil] (top concentration 10000 nM)', 'Yes'),
  ('CO[C@H]1C[C@@H]2CC[C@@H](C)[C@@](O)(O2)C(=O)C(=O)N2CCCC[C@H]2C(=O)O[C@H]([C@H](C)C[C@@H]2CC[C@@H](OP(C)(C)=O)[C@H](OC)C2)CC(=O)[C@H](C)/C=C(\C)[C@@H](O)[C@@H](OC)C(=O)[C@H](C)C[C@H](C)/C=C/C=C/C=C/1C [Ridaforolimus] (top concentration 100 nM)', 'Yes'),
  ('O=C(O)C(=O)O.[NH-][C@@H]1CCCC[C@H]1[NH-].[Pt+2] [Oxaliplatin] (top concentration 100000 nM)', 'Yes'),
  ('CN(C)C[C@@H]1CCn2cc(c3ccccc32)C2=C(C(=O)NC2=O)c2cn(c3ccccc23)CCO1 [Ruboxistaurin] (top concentration 10000 nM)', 'No'),
  ('CCOCc1nc2c(N)nc3ccccc3c2n1CC(C)(C)O [Resiquimod] (top concentration 10000 nM)', 'No'),
  ('COC[C@H](NC(=O)c1cnc(C)s1)C(=O)N[C@@H](COC)C(=O)N[C@@H](Cc1ccccc1)C(=O)[C@@]1(C)CO1 [Oprozomib] (top concentration 2500 nM)', 'Yes'),
  ('CC(C)(O)CC(=O)NCCn1ccc2ncnc(Nc3ccc(Oc4cccc(C(F)(F)F)c4)c(Cl)c3)c21 [TAK-285] (top concentration 2500 nM)', 'Yes'),
  ('Cn1cnc2c(F)c(Nc3ccc(Br)cc3F)c(C(=O)NOCCO)cc21 [Binimetinib] (top concentration 1000 nM)', 'No'),
  ('C=C1C[C@@H]2CC[C@@]34C[C@H]5O[C@H]6[C@@H](O3)[C@H]3O[C@H](CC[C@@H]3O[C@H]6[C@H]5O4)CC(=O)C[C@@H]3[C@@H](OC)[C@@H](C[C@H](O)CN)O[C@H]3C[C@H]3O[C@@H](CC[C@@H]1O2)C[C@@H](C)C3=C [Eribulin] (top concentration 1000 nM)', 'Yes'),
  ('CCCOc1ccn2c(C(C)=O)cc(-c3ccccc3S(C)(=O)=O)c2c1 [GSK2801] (top concentration 10000 nM)', 'Yes'),
  ('CC1=NN(c2ccc(C(=O)O)cc2)C(=O)C1=Cc1ccc(-c2cc(C)c(C)cc2[N+](=O)[O-])o1 [C646] (top concentration 25000 nM)', 'Yes');
